These data points were gathered from patent US20250000979A1.

experimental-protocol: Photoreaction quantum yields and cross sections (HPLC, Reinecke's salt actinometry)
Format: physicochemical
details: λex 690 nm, 0.1 eq Os, N2; ε of Os(bptpy)2·2PF6 at 688 nm
quantity-kind: Cross section Φpε(λex) (M⁻¹ cm⁻¹)
Numbers only, in M⁻¹ cm⁻¹.

These solved cases illustrate the format of a correct answer.
COc1ccc2c(c1)c(CC(=O)OCC1=C3C(C)=C(I)C(C)=[N+]3[B-](C)(C)n3c(C)c(I)c(C)c31)c(C)n2C(=O)c1ccc(Cl)cc1: 229.15
CC1=C(I)C(C)=[N+]2C1=C(COC(=O)/C=C/c1cccc(OCc3ccccc3)c1)c1c(C)c(I)c(C)n1[B-]2(C)C: 213.33
CC1=C(I)C(C)=[N+]2C1=C(COC(=O)NCCc1ccc(O)c(O)c1)c1c(C)c(I)c(C)n1[B-]2(C)C: 228.90
CC1=C(I)C(C)=[N+]2C1=C(COC(=O)Cc1cccc3c(=O)c4ccc(C)c(C)c4oc13)c1c(C)c(I)c(C)n1[B-]2(C)C: 230.30
CC1=C(I)C(C)=[N+]2C1=C(COC(=O)NCCc1ccc(O)cc1)c1c(C)c(I)c(C)n1[B-]2(C)C: 223.12
CC1=C(I)C(C)=[N+]2C1=C(COC(=O)C(C)c1ccc(CC(C)C)cc1)c1c(C)c(I)c(C)n1[B-]2(C)C (centres unmarked): 226.34
CCCCN(C(=O)OCC1=C2C(C)=C(I)C(C)=[N+]2[B-](C)(C)n2c(C)c(I)c(C)c21)c1ccc(C(=O)OCCN(C)C)cc1: 215.84

Let's switch to this compound now.
Form field: reported Cross section Φpε(λex) of COc1ccc(CCNC(=O)OCC2=C3C(C)=C(I)C(C)=[N+]3[B-](C)(C)n3c(C)c(I)c(C)c32)cc1OC
224.98
